System: TZM
Experiment: Cytotoxicity against human TZM-bl cells incubated for 3 days by MTS assay
Type: cell-based
Conditions: 72 h
Met if CC50 is below 60 µM. Not met if not; exact matches included in Not met.

>>> classassignment("NC[C@H](NC(=O)c1ccc(-c2ccc(C(F)(F)F)cn2)[nH]1)c1nc(CCCO)cs1")
"Not met"
>>> classassignment("CC(CN)(NC(=O)c1ccc(-c2ccc(C(F)(F)F)cn2)[nH]1)c1nc(CO)cs1 (racemic)")
"Not met"
>>> classassignment("Cc1cc(-c2ccc(C(F)(F)F)cn2)[nH]c1C(=O)N[C@@H](c1ncc(CO)s1)C(C)(C)N")
"Met"
>>> classassignment("Cc1cc(-c2ccc(C(F)(F)F)cn2)[nH]c1C(=O)N[C@@H](CN)c1ncc(CO)s1")
"Not met"
>>> classassignment("CC(C)(N)[C@H](NC(=O)c1ccc(-c2ccc(C(F)(F)F)cn2)[nH]1)c1ncc(CO)s1")
"Met"
>>> classassignment("NC[C@@H](NC(=O)c1ccc(-c2ccc(C(F)(F)F)cc2)[nH]1)c1ncc(CO)s1")
"Met"
>>> classassignment("NC[C@H](NC(=O)c1ccc(-c2ccc(C(F)(F)F)cn2)[nH]1)c1nc(C(O)CO)cs1 (some centres undefined)")
"Not met"
